Biological target: p70 (NAMPT) (Homo sapiens)
Construct: endogenous in cells; host or cells: H2122 lung cancer cells
Sequence (P43490 whole entry): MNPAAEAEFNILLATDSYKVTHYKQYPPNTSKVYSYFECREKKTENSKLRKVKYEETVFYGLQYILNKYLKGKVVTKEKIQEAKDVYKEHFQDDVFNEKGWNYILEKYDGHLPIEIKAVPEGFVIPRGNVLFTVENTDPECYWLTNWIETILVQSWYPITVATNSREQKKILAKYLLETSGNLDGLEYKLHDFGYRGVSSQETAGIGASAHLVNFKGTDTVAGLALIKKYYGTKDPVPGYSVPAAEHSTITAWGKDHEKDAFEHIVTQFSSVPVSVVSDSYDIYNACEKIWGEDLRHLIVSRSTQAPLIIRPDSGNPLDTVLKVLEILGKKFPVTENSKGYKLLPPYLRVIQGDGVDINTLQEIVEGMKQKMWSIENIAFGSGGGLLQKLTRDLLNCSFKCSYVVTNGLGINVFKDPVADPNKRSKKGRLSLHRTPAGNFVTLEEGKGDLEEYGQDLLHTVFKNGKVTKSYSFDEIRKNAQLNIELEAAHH
Assay: binding competition for photo-crosslinking of P7C3-S326 to p70 in H2122 cells
Conditions: 0.3 μM P7C3-S326 plus 5 μM competitor, p70 band intensity, P7C3-S326 alone compared with plus competitor, vehicle 1.0
TEST READOUT: Binding competition
Give your answer as a number; write no unit.

Given the entry `O=C(Cn1c2ccc(Br)cc2c2cc(Br)ccc21)NO` , report its measured Binding competition.
1.7

Given the entry COc1c(Br)ccc2c1c1cc(Br)ccc1n2CC(O)CNc1ccccc1 (centres unmarked) , report its measured Binding competition.
3.5

Given the entry COc1cccc(NCC(O)CN2c3ccc(Br)cc3CCc3cc(Br)ccc32)c1 (centres unmarked) , report its measured Binding competition.
1.1

Given the entry `O=S(=O)(C[C@H](O)Cn1c2ccc(Br)cc2c2cc(Br)ccc21)c1ccccc1` , report its measured Binding competition.
2.4

Given the entry CC(C)(C)OC(=O)CCOCCOCCOCCOc1ccc(S(=O)(=O)CC(O)Cn2c3ccc(Br)cc3c3cc(Br)ccc32)cc1 (centres unmarked) , report its measured Binding competition.
2.9

The values you see were collected from patent US9243281B2.
